Where do the numbers come from? From ChEMBL document CHEMBL3988442.

Documented Percent Effect across a set of compounds
target: Tyrosyl-tRNA synthetase, putative (Trypanosoma cruzi (strain CL Brener)) (UniProt Q4DSP6); experiment: Trypanosoma cruzi tyrosyl tRNA synthetase (TcYRS) _High Tyrosine SOP; assay type: functional; parameters: scale not given: in the data most compounds retested in dose-response had high values; conditions: 30 µM
Sequence (Q4DSP6 as listed by the source): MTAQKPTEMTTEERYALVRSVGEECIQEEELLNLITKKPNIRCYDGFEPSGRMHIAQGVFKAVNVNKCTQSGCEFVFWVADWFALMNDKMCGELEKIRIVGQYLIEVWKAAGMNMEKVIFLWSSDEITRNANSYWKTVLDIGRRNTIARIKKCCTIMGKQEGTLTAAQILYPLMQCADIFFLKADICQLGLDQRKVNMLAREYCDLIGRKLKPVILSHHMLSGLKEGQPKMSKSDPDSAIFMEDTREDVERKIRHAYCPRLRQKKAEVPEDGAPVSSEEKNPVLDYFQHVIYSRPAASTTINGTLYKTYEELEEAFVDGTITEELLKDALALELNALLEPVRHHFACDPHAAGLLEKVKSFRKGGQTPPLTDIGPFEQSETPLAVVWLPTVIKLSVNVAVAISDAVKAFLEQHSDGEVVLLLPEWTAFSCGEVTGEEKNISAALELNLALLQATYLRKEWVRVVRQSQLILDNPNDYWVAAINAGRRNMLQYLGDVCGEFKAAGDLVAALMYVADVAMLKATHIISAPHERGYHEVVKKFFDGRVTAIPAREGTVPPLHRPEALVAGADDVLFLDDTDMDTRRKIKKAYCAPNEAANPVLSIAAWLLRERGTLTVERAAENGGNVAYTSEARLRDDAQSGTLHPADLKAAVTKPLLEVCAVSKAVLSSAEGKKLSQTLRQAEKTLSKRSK
Give the quantity in %, number only.

{"Compound": "CC(NC(=O)CCCOc1ccccc1Cl)c1ccncc1 (stereo unspecified)", "Unit Symbol": "%", "Percent Effect": -2.15}
{"Compound": "Cc1cnc(CN(C)C2CCN(CCn3cc(C#N)cn3)C2)o1 (stereo unspecified)", "Unit Symbol": "%", "Percent Effect": 3.45}
{"Compound": "COCC(=O)N1CCC2(CC1)CC(CC(=O)NC1CC1)c1ccccc12 (stereo unspecified)", "Unit Symbol": "%", "Percent Effect": -0.526}
{"Compound": "CN1CCN(C(=O)c2ccc(=O)n(C)c2)Cc2ccccc21", "Unit Symbol": "%", "Percent Effect": 3.96}
{"Compound": "Cn1cc(CN2C[C@@H]3CN(Cc4ccoc4)CCO[C@@H]3C2)cn1", "Unit Symbol": "%", "Percent Effect": 0}

Continue with the compound presented below.
# get_value(readout='Percent Effect', item= CC(=O)N1CCCn2nc(CNS(=O)(=O)c3cc(C)cs3)cc2C1 )
4.79
